- EXPERIMENTAL DETAILS: Single oral dose plasma pharmacokinetics in fasted and fed healthy subjects (food effect, ethnicity)
- Type: in vivo, human
- EXPERIMENTAL PARAMETERS: both sexes, human, plasma, po, 2000 mg, 2000 mg oral, Fed, Caucasian/Non-Asian; read-out: AUC0-inf, GeoMean
PROPERTY LABEL: AUC(0-inf) (µg·h/mL)
Give bare numbers, in µg·h/mL.

In: Report AUC(0-inf) for CNC(=O)c1ccc(NCC#Cc2cc3c(N[C@@H]4CCN(C)C[C@@H]4F)cccc3n2CC(F)(F)F)c(OC)c1 please.
Out: 479

====

- EXPERIMENTAL DETAILS: Single oral dose plasma pharmacokinetics in fasted and fed healthy subjects (food effect, ethnicity)
- Format: in vivo, human
- EXPERIMENTAL PARAMETERS: both sexes, human, plasma, po, 1000 mg, 1000 mg oral, Fasted (Part 1); read-out: Vz/F, GeoMean
PROPERTY LABEL: Vd/F (L)
One number for each entry, in L.

In: Name the reported Vd/F value associated with the molecule CNC(=O)c1ccc(NCC#Cc2cc3c(N[C@@H]4CCN(C)C[C@@H]4F)cccc3n2CC(F)(F)F)c(OC)c1 [Compound 1]
Out: 148

====

- EXPERIMENTAL DETAILS: Urine pharmacokinetics in healthy subjects (Ae, CLR, fe)
- Assay type: in vivo, human
- EXPERIMENTAL PARAMETERS: both sexes, human, urine, oral, 1000 mg, fasted (Part 1); read-out: renal clearance (CLR), geometric mean (converted)
PROPERTY LABEL: CL renal
Kindly report the value followed by its unit.

In: Query: CL renal; subject: CNC(=O)c1ccc(NCC#Cc2cc3c(N[C@@H]4CCN(C)C[C@@H]4F)cccc3n2CC(F)(F)F)c(OC)c1
Out: 2.87 mL/min

====

- EXPERIMENTAL DETAILS: Single oral dose plasma pharmacokinetics in fasted and fed healthy subjects (food effect, ethnicity)
- Format: in vivo, human
- EXPERIMENTAL PARAMETERS: both sexes, human, plasma, po, 2000 mg, 2000 mg oral, Fed, Caucasian/Non-Asian; read-out: t½, GeoMean (converted)
- Procedure: Compound 1 pharmacokinetics were analyzed in healthy subjects administered Compound 1 in a fasted state. […] Compound 1 pharmacokinetics were also analyzed in healthy subjects administered Compound 1 in a fed state. […] In scheme 1A, at period 1, Compound 1 analyzed in healthy subjects administered 1000 mg Compound 1 (n=3) in a fed state. […] Separately, in scheme 1B, at period 1, Compound 1 was analyzed in healthy subjects administered 1000 mg Compound 1 (n=3) in a fasted state. […]
PROPERTY LABEL: half-life (h)
Numbers only, in h.

In: Item under review: CNC(=O)c1ccc(NCC#Cc2cc3c(N[C@@H]4CCN(C)C[C@@H]4F)cccc3n2CC(F)(F)F)c(OC)c1 [Compound 1] . Reported half-life?
Out: 22.7

====

- EXPERIMENTAL DETAILS: Single oral dose plasma pharmacokinetics in fasted and fed healthy subjects (food effect, ethnicity)
- Type: in vivo, human
- EXPERIMENTAL PARAMETERS: both sexes, human, plasma, po, 2000 mg, 2000 mg oral, Fed, Caucasian/Non-Asian; read-out: Tmax, Minimum, Maximum
- Description: Compound 1 pharmacokinetics were analyzed in healthy subjects administered Compound 1 in a fasted state. […] Compound 1 pharmacokinetics were also analyzed in healthy subjects administered Compound 1 in a fed state. […] In scheme 1A, at period 1, Compound 1 analyzed in healthy subjects administered 1000 mg Compound 1 (n=3) in a fed state. […] Separately, in scheme 1B, at period 1, Compound 1 was analyzed in healthy subjects administered 1000 mg Compound 1 (n=3) in a fasted state. […]
PROPERTY LABEL: Tmax

In: Bench note: what Tmax did CNC(=O)c1ccc(NCC#Cc2cc3c(N[C@@H]4CCN(C)C[C@@H]4F)cccc3n2CC(F)(F)F)c(OC)c1 [Compound 1] show?
Out: 2.11 to 8.08 h
